tested on: MCF7; assay: Antiproliferative activity against human MCF7 cells assessed as cell viability after 48 hrs MTT assay; type: functional, cell-based; conditions: MCF7, 48 h
experimentalReadout: IC50
Please don't drop the unit; write it after the number.

## Input Tell me measured IC50 for O=C1C(Cl)=C(Nc2ccc(S(=O)(=O)Nc3cccc([N+](=O)[O-])c3)cc2)C(=O)c2ccccc21 please.
## Output 2.17 µM

## Input Specify IC50 for Cc1ccnc(NS(=O)(=O)c2ccc(NC3=C(Cl)C(=O)c4ccccc4C3=O)cc2)c1 and stop.
## Output 2.11 µM

## Input Entry O=C(Nc1nccs1)c1ccc(NC2=C(Cl)C(=O)c3ccccc3C2=O)cc1 needs its IC50 filled in; supply it.
## Output 3.84 µM

## Input Kindly indicate its recorded IC50. Item: O=C1C(Cl)=C(Nc2ccc(S(=O)(=O)Nc3ccc(Br)cc3)cc2)C(=O)c2ccccc21
## Output 3.37 µM

## Input # return recorded IC50 for entry Cc1cccnc1NS(=O)(=O)c1ccc(NC2=C(Cl)C(=O)c3ccccc3C2=O)cc1
## Output 1.91 µM
